Target: bdSUMO D67K-MBP fusion protein
reported-property: cleavage of the SUMO fusion protein

{"protein": "bdSENP1^MutG (protein) PFVPLTDEDEDNVRHALGGRKSSETLSVHEASHIVITREILQCLNDKEWLNDEVINLYLELLKERELREPNKFLKCHFFNTFFYKKLINGGYDYKSVRRWTTVKLGYNLIDCDKIFVPIHKDVHWCLAVINIKEKKFQYLDSLGYMDMKALRILAKYLVDEVKDKSGKQIDVHAWKQEGVQNLPLQENGWDCGMFMLKYIDFYSRDMELVFGQKHMSYFRRRTAKEILDLKAG", "result": "< 75 % cleavage"}
